- Assayed Target: EZH2 Mutant Y641N (Homo sapiens (Human), UniProt Q15910, Y641N)
- Sequence (Q15910 whole entry Y641N, looked up): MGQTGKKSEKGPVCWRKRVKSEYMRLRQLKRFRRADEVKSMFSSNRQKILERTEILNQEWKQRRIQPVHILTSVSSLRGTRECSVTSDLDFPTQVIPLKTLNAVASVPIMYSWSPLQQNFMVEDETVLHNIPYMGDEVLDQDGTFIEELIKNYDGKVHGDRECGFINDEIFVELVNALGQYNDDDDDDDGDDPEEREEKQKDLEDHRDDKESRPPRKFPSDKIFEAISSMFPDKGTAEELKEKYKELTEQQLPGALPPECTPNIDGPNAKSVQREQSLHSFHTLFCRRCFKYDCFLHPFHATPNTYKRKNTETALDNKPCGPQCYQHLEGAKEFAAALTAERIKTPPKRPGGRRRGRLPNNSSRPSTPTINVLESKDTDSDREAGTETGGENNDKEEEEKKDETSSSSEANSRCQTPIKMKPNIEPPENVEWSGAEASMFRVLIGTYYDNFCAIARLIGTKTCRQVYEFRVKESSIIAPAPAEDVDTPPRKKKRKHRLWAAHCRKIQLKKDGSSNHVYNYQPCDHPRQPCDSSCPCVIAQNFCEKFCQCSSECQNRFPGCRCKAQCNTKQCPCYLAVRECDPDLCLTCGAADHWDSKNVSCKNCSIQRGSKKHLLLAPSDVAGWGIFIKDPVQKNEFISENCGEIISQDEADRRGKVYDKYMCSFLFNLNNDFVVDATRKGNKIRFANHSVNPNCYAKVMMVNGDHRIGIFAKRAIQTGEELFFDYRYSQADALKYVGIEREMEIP
- Sequence (O75530 whole entry partner, looked up): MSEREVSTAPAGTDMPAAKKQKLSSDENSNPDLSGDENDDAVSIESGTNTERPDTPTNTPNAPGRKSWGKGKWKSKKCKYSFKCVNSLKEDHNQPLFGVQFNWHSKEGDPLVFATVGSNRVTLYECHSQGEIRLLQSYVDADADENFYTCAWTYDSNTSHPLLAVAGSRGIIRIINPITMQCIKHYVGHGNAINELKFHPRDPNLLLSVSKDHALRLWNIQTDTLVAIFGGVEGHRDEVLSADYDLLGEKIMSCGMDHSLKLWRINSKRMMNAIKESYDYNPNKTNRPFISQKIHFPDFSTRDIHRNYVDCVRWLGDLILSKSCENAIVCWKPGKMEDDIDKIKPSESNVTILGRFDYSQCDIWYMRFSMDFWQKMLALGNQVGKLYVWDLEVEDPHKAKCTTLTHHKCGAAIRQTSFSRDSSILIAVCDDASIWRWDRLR
- Sequence (Q15022 whole entry partner, looked up): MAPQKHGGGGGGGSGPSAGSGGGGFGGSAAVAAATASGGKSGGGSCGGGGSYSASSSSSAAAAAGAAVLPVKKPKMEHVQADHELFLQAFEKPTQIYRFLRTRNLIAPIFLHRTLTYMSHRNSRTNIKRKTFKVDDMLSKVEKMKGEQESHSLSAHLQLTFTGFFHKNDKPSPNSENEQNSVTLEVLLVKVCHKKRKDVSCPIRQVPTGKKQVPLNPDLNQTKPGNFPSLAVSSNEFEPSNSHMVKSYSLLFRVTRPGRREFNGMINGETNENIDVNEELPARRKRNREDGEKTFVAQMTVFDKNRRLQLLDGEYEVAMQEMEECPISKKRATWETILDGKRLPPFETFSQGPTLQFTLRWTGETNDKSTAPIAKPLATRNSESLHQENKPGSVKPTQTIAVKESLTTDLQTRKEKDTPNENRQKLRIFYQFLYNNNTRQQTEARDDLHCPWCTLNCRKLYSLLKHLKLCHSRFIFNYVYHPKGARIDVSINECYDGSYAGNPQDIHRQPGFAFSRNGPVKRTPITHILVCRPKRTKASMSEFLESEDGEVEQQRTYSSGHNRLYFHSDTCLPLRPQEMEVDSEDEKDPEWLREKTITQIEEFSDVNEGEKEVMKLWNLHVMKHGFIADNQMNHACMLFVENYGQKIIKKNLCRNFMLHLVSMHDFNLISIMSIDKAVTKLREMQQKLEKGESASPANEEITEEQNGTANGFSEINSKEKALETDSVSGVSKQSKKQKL
- Sequence (Q09028 whole entry partner, looked up): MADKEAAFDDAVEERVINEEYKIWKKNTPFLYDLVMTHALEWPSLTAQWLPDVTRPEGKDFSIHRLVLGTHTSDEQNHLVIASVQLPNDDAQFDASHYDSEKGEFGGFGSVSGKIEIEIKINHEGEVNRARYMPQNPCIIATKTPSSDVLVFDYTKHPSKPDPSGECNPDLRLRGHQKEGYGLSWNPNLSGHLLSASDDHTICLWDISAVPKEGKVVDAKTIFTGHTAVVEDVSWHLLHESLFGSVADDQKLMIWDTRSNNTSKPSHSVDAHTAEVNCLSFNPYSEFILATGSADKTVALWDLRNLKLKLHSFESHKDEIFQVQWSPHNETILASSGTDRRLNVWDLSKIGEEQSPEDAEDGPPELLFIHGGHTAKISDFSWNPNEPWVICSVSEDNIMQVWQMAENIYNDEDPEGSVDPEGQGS
- Method: EZH2 Mutant Y641N nucleosome assay
- Type: biochemical
- Reported Conditions: PRC2 4-protein complex 6 nM, 1.5 μM SAM, HeLa oligonucleosomes; read-out: EZH2 Mutant Y641N Nucleosome assay IC50
Class key for IC50 values: low range = under 20 nM, mid range = from 20 nM up to 200 nM, high range = 200 nM and over

Each compound maps to one class by IC50. Which class for COc1cc(C)[nH]c(=O)c1CN1CCc2c(C)cc(C(C)C3CN(S(C)(=O)=O)C3)c(Cl)c2C1=O (single isomer, unassigned) [Example 192] ? high range

Hello team, could you let me know which band the following compound falls into: Cc1cc(C)c(CN2CCc3c(Cl)cc(C(CO)N4CC[C@@H](F)C4)c(Cl)c3C2=O)c(=O)[nH]1 (single isomer, unassigned) [Example 7] high range

Kindly identify the class of Cc1cc(C)c(CN2CCc3c(Cl)cc([C@@H](CO)[C@@H]4CCCO4)c(Cl)c3C2=O)c(=O)[nH]1 [Example 46] . high range

Which class does Cc1cc(C)c(CN2CCc3c(Cl)cc(C(F)=C4CN(C(=O)CO)C4)c(Cl)c3C2=O)c(=O)[nH]1 [Example 79] fall in? mid range

Class label required: COC(c1cc(C)c2c(c1Cl)C(=O)N(Cc1c(C)cc(C)[nH]c1=O)CC2)C1CN(C2COC2)C1 (single isomer, unassigned) [Example 182] high range

Band for the recorded IC50 of Cc1cc(C)c(CN2CCc3c(Cl)cc(C(C)C4CNC4)c(Cl)c3C2=O)c(=O)[nH]1 (single isomer, unassigned) [Example 189] ? low range

Which class holds Cc1cc(C)c(CN2CCc3c(Cl)cc(C(CO)N4CC[C@H](F)C4)c(Cl)c3C2=O)c(=O)[nH]1 (single isomer, unassigned) [Example 63] ? high range

Which IC50 band matches Cc1cc(C)c(CN2CCc3c(Cl)cc(C(CO)N4CCC(F)(F)C4)c(Cl)c3C2=O)c(=O)[nH]1 (racemic) [Example 59] ? mid range

For this compound, which bin applies? Cc1cc(C)c(CN2CCc3c(Cl)cc(C(CO)N4CC[C@@H](F)C4)c(Cl)c3C2=O)c(=O)[nH]1 (single isomer, unassigned) [Example 6] mid range

Using the reported IC50, which band applies to COc1cc(C)[nH]c(=O)c1CN1CCc2c(C)cc(C(C)=C3CN(S(C)(=O)=O)C3)c(Cl)c2C1=O [Example 78] ? mid range

Please report the category associated with Cc1cc(C)c(CN2CCc3c(Cl)cc(C(F)C4CCN(C(=O)CO)CC4)c(Cl)c3C2=O)c(=O)[nH]1 (single isomer, unassigned; (-)) [Example 9] , nothing else. mid range

Which class is correct for the following compound? COC(c1ccc2c(c1Cl)C(=O)N(Cc1c(C)cc(C)[nH]c1=O)CC2)C1CCOC1 (single isomer, unassigned) [Example 132] low range

Pick a category. Item: Cc1cc(C)c(CN2CCc3c(C)cc(C(C)C4COC4)c(Cl)c3C2=O)c(=O)[nH]1 (single isomer, unassigned) [Example 195] high range

Hi, small favor: classify Cc1cc(OC(F)F)c(CN2CCc3c(Cl)cc(C(CO)C4CCOCC4)c(Cl)c3C2=O)c(=O)[nH]1 (single isomer, unassigned) [Example 56] by its IC50 when you get a moment. low range

Input COC(c1cc(Cl)c2c(c1Cl)C(=O)N(Cc1c(C)cc(C)[nH]c1=O)CC2)C1CN(C(=O)[C@@H](C)O)C1 (single isomer, unassigned) [Example 170] ; output its category low range

Consider COC(c1cc(C)c2c(c1Cl)C(=O)N(Cc1c(C)cc(C)[nH]c1=O)CC2)C1CCN(C2COC2)CC1 (single isomer, unassigned) [Example 155] . To which IC50 class does it belong? mid range

Band for the recorded IC50 of Cc1cc(C)c(CN2CCc3c(C)cc(C(C)C4COC4)c(Cl)c3C2=O)c(=O)[nH]1 (single isomer, unassigned) [Example 196] ? low range

Which of the defined bands does the recorded IC50 of COc1cc(C)[nH]c(=O)c1CN1CCc2c(C)cc(C(OC)C3CCS(=O)(=O)CC3)c(Cl)c2C1=O (single isomer, unassigned) [Example 130] sit within? high range

Lab note: which band did COC(c1cc(Br)c2c(c1Cl)C(=O)N(Cc1c(C)cc(C)[nH]c1=O)CC2)C1CCN(C)CC1 (single isomer, unassigned) [Example 146] land in? low range

# bin label for COC(c1cc(Cl)c2c(c1Cl)C(=O)N(Cc1c(C)cc(C)[nH]c1=O)CC2)C1CCS(=O)(=O)C1 (single isomer, unassigned) [Example 151] low range

Determine which band this compound sits in: COC(c1cc(Cl)c2c(c1Cl)C(=O)N(Cc1c(C)cc(C)[nH]c1=O)CC2)C1CCN(C=O)CC1 (single isomer, unassigned) [Example 72] mid range

Entry Cc1cc(C)c(CN2CCc3c(Cl)cc(C(C)N4CCOCC4)c(Cl)c3C2=O)c(=O)[nH]1 (single isomer, unassigned; (+)) [Example 90] belongs to which category? high range

All values here come from patent US10570121B2.
